Property: Ki; scope: individual compounds
- TARGET OF ASSAY: Transient receptor potential cation channel subfamily V member 1 (Rattus norvegicus, UniProt O35433)
- Sequence (O35433 whole entry): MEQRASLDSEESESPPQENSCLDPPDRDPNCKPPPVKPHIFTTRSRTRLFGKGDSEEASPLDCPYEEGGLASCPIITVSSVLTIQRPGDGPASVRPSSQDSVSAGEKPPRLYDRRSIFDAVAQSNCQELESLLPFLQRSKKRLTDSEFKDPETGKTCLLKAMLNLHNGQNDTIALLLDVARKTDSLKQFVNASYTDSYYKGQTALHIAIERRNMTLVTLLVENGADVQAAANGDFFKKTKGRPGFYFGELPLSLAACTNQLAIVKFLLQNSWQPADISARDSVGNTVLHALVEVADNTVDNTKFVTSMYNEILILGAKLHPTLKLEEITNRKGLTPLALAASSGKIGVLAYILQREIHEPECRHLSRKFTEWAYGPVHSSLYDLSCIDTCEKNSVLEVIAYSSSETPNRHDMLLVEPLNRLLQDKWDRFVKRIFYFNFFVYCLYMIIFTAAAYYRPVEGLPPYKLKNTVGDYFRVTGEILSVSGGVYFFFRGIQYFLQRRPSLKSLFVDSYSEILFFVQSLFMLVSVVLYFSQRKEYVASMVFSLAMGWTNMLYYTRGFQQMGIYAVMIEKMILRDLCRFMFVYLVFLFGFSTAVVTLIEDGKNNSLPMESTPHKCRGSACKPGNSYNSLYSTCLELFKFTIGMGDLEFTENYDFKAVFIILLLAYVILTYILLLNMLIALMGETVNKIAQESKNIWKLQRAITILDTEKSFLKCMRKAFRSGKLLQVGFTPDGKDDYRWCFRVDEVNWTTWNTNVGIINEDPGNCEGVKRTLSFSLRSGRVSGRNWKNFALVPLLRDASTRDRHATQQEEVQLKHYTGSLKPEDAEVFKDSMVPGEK
Use nM as the unit, but write only the number.

These solved cases illustrate the format of a correct answer.
molecule_smiles=C=C(C)[C@@]12C[C@@H](C)[C@@]34OC(Cc5ccccc5)(O[C@@H]1[C@@H]3C=C(COC(=O)Cc1ccc(F)c(F)c1)C[C@]1(O)C(=O)C(C)=C[C@@H]41)O2 recorded_endpoint=Ki quantitative_result=0.98
molecule_smiles=C=C(C)[C@@]12C[C@@H](C)[C@@]34OC(Cc5ccccc5)(O[C@@H]1[C@@H]3C=C(COC(=O)Cc1cc(F)cc(F)c1)C[C@]1(O)C(=O)C(C)=C[C@@H]41)O2 recorded_endpoint=Ki quantitative_result=8.3
molecule_smiles=C=C(C)[C@@]12C[C@@H](C)[C@@]34OC(Cc5ccccc5)(O[C@@H]1[C@@H]3C=C(CNC(=O)Cc1ccc(NS(C)(=O)=O)cc1)C[C@]1(O)C(=O)C(C)=C[C@@H]41)O2 recorded_endpoint=Ki quantitative_result=320
molecule_smiles=C=C(C)[C@@]12C[C@@H](C)[C@@]34OC(Cc5ccccc5)(O[C@@H]1[C@@H]3C=C(COC(=O)Cc1ccc(F)cc1)C[C@]1(O)C(=O)C(C)=C[C@@H]41)O2 recorded_endpoint=Ki quantitative_result=3.1

Input line: Entry C=C(C)[C@@]12C[C@@H](C)[C@@]34OC(Cc5ccccc5)(O[C@@H]1[C@@H]3C=C(COC(=O)Cc1c(F)cccc1F)C[C@]1(O)C(=O)C(C)=C[C@@H]41)O2 has what Ki?
Output line: 2.69

Input line: Now try C=C(C)[C@@]12C[C@@H](C)[C@@]34OC(Cc5ccccc5)(O[C@@H]1[C@@H]3C=C(COC(=O)Cc1ccc(NS(C)(=O)=O)c(F)c1)C[C@]1(O)C(=O)C(C)=C[C@@H]41)O2 .
Output line: 0.84

Input line: Check C=C(C)[C@@]12C[C@@H](C)[C@@]34OC(Cc5ccccc5)(O[C@@H]1[C@@H]3C=C(COC(=O)Cc1cccc(F)c1)C[C@]1(O)C(=O)C(C)=C[C@@H]41)O2 too.
Output line: 2.4

====

- TARGET OF ASSAY: Transient receptor potential cation channel subfamily V member 1 (Rattus norvegicus)
- PROTOCOL TEXT: Agonist activity at rat TRPV1 receptor expressed in CHO cells assessed as calcium uptake
Reported pEC50 is given for each of the following compounds.
Note on units: pEC50 is unitless, being -log10 of a concentration expressed in mol/L.

Observe how each entry below is paired with its result.
molecule_smiles=C=C(C)[C@@]12C[C@@H](C)[C@@]34OC(Cc5ccccc5)(O[C@@H]1[C@@H]3C=C(COC(=O)Cc1ccccc1F)C[C@]1(O)C(=O)C(C)=C[C@@H]41)O2 quantitative_result=8.33
molecule_smiles=C=C(C)[C@@]12C[C@@H](C)[C@@]34OC(Cc5ccccc5)(O[C@@H]1[C@@H]3C=C(CNC(=O)Cc1ccc(NS(C)(=O)=O)cc1)C[C@]1(O)C(=O)C(C)=C[C@@H]41)O2 quantitative_result=6.43

// moving on: another record for pEC50
Input line: So what does the record say about pEC50 for C=C(C)[C@@]12C[C@@H](C)[C@@]34OC(Cc5ccccc5)(O[C@@H]1[C@@H]3C=C(COC(=O)Cc1ccc(NS(C)(=O)=O)c(F)c1)C[C@]1(O)C(=O)C(C)=C[C@@H]41)O2 ?
Output line: 8.61

Attribution: ChEMBL document CHEMBL1140894
